Sourced from paper PMC6270288

Target: COX-1 (Ovis aries, UniProt P05979)
Construct: isolated from ram seminal vesicles
Sequence (P05979 25-600): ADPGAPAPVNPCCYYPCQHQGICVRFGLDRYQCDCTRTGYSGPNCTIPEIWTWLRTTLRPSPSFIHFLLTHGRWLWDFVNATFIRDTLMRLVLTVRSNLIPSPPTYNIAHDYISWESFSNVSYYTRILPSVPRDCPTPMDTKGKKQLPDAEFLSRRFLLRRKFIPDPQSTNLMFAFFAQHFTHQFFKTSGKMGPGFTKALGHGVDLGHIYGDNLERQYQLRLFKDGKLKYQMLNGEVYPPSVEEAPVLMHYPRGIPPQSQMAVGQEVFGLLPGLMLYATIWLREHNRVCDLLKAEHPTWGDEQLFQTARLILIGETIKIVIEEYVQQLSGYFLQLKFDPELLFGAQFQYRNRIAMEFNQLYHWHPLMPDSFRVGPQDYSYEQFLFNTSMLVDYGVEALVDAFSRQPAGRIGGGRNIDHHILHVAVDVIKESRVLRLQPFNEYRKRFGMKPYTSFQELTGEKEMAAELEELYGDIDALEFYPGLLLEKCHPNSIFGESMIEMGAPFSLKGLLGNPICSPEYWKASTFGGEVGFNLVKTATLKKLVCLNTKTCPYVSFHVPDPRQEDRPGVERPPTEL
Protocol notes: COX-1-catalyzed prostaglandin biosynthesis assay in vitro
Condition info: triplicate five-point titration
Measured quantity: IC50 (µM)

[I] CC(C)O[C@H]1Oc2ccc(O)c3c2[C@@]1(C)[C@H]1C(=O)C=C(CO)C1=C3 [Compound 1a]
[II] C=C1CC[C@H]2[C@](C)(COC(C)=O)CCC[C@]2(C)[C@H]1CO[C@@H](C(=O)OC)[C@H](CC(=O)O)C(=O)OC [Compound 4, Cryptoporic acid Q]
INPUT: Looking at I and II , which one comes out lower in IC50 terms? Selection: enter the item's label.
OUTPUT: I
